# Target or system: FGFR1 (SEQ ID NO: 1, amino acids 458-765) (Homo sapiens (Human))
# Sequence (P11362 458-765): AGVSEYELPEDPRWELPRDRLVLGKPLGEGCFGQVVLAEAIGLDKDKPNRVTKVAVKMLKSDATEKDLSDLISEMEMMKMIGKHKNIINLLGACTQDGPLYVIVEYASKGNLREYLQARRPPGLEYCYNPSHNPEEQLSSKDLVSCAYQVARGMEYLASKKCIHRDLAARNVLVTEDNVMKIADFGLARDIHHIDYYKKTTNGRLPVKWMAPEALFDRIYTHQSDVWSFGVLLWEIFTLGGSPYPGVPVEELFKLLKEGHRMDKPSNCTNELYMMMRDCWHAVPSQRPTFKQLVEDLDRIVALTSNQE
# Protocol text: LC/MS FGFR1 kobs assay (covalent protein modification)
# Type: binding
# Particulars: 500 nM FGFR1, 3 μM compound
# Method: The LC/MS FGFR1 and FGFR3 kobs assays were conducted as follows. […] At each time point, the reaction was quenched with 20 μL of 0.4% formic acid. The extent of protein modification by each compound was determined by LC/MS on an Agilent Technologies 6520 Q-TOF LC/MS. […] Data analysis included five steps. First, the signals for the “DMSO Controls” were analyzed to determine the percent of signal associated with unmodified FGFR1 or FGFR3 at each time point. […]
Measurement kind: FGFR1 Enz kobs (min⁻¹)
// return numeric value only (unit: min⁻¹, not printed)

Note to self: FGFR1 Enz kobs recorded for C=CC(=O)N1CC(CN2CCC(n3ncc(-c4cc(OC)c5c(Cl)cnn5c4)c3C)CC2)(OC)C1 was 0.00359

Note to self: FGFR1 Enz kobs recorded for C=CC(=O)N1CC(C(=O)N2C[C@@H]3C[C@H]2CN3c2ccc(-c3cc(OC)c4c(C#N)cnn4c3)cn2)C1 was 0.00246

Note to self: FGFR1 Enz kobs recorded for C=CC(=O)N[C@H]1C[C@@H](C(=O)N2CC(n3cc(-c4cc(OC)c5c(C#N)cnn5c4)cn3)C2)C1 was 0.00024

Note to self: FGFR1 Enz kobs recorded for C=CC(=O)N1CC(C(=O)N2CCC(n3cc(-c4cc(OC)c5c(C#N)cnn5c4)c(C)n3)CC2)C1 was 0.00145

Note to self: FGFR1 Enz kobs recorded for C=CC(=O)N1CC(C(=O)N2CCN(c3ccc(-c4cc(OC)c5c(C#N)cnn5c4)nn3)CC2)C1 was 0.0016

Note to self: FGFR1 Enz kobs recorded for C=CC(=O)N1CCC(C#N)(C(=O)N2CCC(n3cc(-c4cc(OC)c5c(C#N)cnn5c4)cn3)CC2)CC1 was 0.00069

Note to self: FGFR1 Enz kobs recorded for C=CC(=O)N1CC(C(=O)N2CC3CCC(C2)N3c2ccc(-c3cc(OC)c4c(C#N)cnn4c3)cn2)C1 was 0.00338

Data origin, for the record: patent US12180207B2
